Tested on: Canis familiaris
Test: Clearance in dog at 0.02 to 0.5 mg/kg, iv and po
Assay type: ADME, organism-based, Canis lupus familiaris
Parameters: dose 0.02-0.5 mg/kg, route oral
Settings: in vivo
Outcome measure: CL (mL/min/kg)

Name the recorded CL for COc1cc(Cl)cc(C(=O)Nc2ccc(Cl)cn2)c1NC(=O)c1ccc(N2CCCCC2=O)cc1 .
12

Name the recorded CL for COc1cc(Cl)cc(C(=O)Nc2ccc(Cl)cn2)c1NC(=O)c1ccc(-n2ccccc2=O)cc1 .
11.2

(a) COc1cc(Cl)cc(C(=O)Nc2ccc(Cl)cn2)c1NC(=O)c1ccc(-n2ccccc2=O)cc1F
(b) COc1cc(Cl)cc(C(=O)Nc2ccc(Cl)cn2)c1NC(=O)c1ccc(-n2ccccc2=O)nc1
(c) COc1ccc(-n2nc(C(N)=O)c3c2C(=O)N(c2ccc(N4CCCCC4=O)cc2)CC3)cc1 [APIXABAN]
// sort entries: CL, high to low List each label, following the requested order.
a, b, c

----------
Test system: Canis familiaris
Assay: Volume of distribution at steady state in dog at 0.02 to 0.5 mg/kg, iv and po
Assay type: ADME, organism-based, Canis lupus familiaris
Parameters: dose 0.02-0.5 mg/kg, route oral
Details: in vivo
Outcome measure: Vdss (L/kg)

Hi! What's the reported Vdss for COc1cc(Cl)cc(C(=O)Nc2ccc(Cl)cn2)c1NC(=O)c1ccc(-n2ccccc2=O)nc1 on Canis familiaris?
0.81

(A) COc1ccc(-n2nc(C(N)=O)c3c2C(=O)N(c2ccc(N4CCCCC4=O)cc2)CC3)cc1
(B) COc1cc(Cl)cc(C(=O)Nc2ccc(Cl)cn2)c1NC(=O)c1ccc(-n2ccccc2=O)cc1
(C) COc1cc(Cl)cc(C(=O)Nc2ccc(Cl)cn2)c1NC(=O)c1ccc(-n2ccccc2=O)cc1F
(D) COc1cc(Cl)cc(C(=O)Nc2ccc(Cl)cn2)c1NC(=O)c1ccc(N2CCCCC2=O)cc1
Ordering: ascending Vdss. List each label, following the requested order.
A, B, D, C

----------
Test: Bioavailability in dog at 0.02 to 0.5 mg/kg, po
Type: ADME, organism-based, Canis lupus familiaris
Conditions: in vivo
Outcome measure: bioavailability (%)

Solved entries (count: 2):
Name the recorded bioavailability for COc1cc(Cl)cc(C(=O)Nc2ccc(Cl)cn2)c1NC(=O)c1ccc(-n2ccccc2=O)cc1F .
18

Name the recorded bioavailability for COc1cc(Cl)cc(C(=O)Nc2ccc(Cl)cn2)c1NC(=O)c1ccc(-n2ccccc2=O)nc1 .
74

(a) COc1cc(Cl)cc(C(=O)Nc2ccc(Cl)cn2)c1NC(=O)c1ccc(-n2ccccc2=O)cc1
(b) COc1cc(Cl)cc(C(=O)Nc2ccc(Cl)cn2)c1NC(=O)c1ccc(N2CCCCC2=O)cc1
Lower bioavailability: a or b ? # respond with the chosen item's label
b
(b: 44%, a: 99%)

----------
Assay: Solubility in potassium phosphate buffer at pH 6.5 by thermodynamic equilibrium aqueous solubility assay
Assay type: physicochemical
Outcome measure: solubility thermodynamic (µg/mL)

(a) COc1cc(Cl)cc(C(=O)Nc2ccc(Cl)cn2)c1NC(=O)c1ccc(N2CCCCC2=O)cc1
(b) CN(C)CCOc1cc(Cl)cc(C(=O)Nc2ccc(Cl)cn2)c1NC(=O)c1ccc(N2CCCCC2=O)cc1
For this pair, a and b , which shows a numerically higher solubility thermodynamic? # respond with the chosen item's label
b
(b: 912 µg/mL, a: 19 µg/mL)
